Would you kindly list TGI for each of these compounds?
- System: A498 renal
- experiment_description: NCI tumour cell line growth inhibition, 48 h
Answer with a number only, understood to be in µM.

Challenge: Look up TGI for this compound: `COc1ccc(CNCCCN2C(=O)c3ccc4c5c(ccc(c35)C2=O)C(=O)N(CCCNCc2ccc(OC)c(OC)c2OC)C4=O)c(OC)c1OC`
Response given: 1.25

Challenge: What would you report for `CCN(CC)CCn1c(=O)c2cc(OC)c(OC)cc2c2ccc3cc4c(cc3c21)OCO4` ?
Response given: 0.655

Challenge: // repeat for `COc1ccc2c(c1)C(=O)c1c-2c(N2CCN(C(=O)CCNCCNCCN)CC2)nc2ccccc12` and report
Response given: 33.7

Challenge: // next record `O=c1[nH]nc(CNc2ccc(Cl)cc2Cl)c2ccccc12`
Response given: 33.7

* * *

- Tested on: SF-295 CNS
- experiment_description: NCI tumour cell line growth inhibition, 48 h
attribute_measured: TGI

Challenge: What TGI value was documented for this compound, O=C(CC1(O)C(=O)Nc2ccc([N+](=O)[O-])cc21)c1ccncc1 (configuration not stated) ?
Response given: > 100 µM

Challenge: One more compound: `FC(F)(F)c1nc(SCc2ccc(Cl)cc2)n[nH]1`
Response given: > 100 µM

Challenge: Also need `C1=CCC[C@@H]2CN3CCCC/C=C\CCCC[C@H]4C[C@H](CN(CCCCCCCC1)C4)[C@H]2CC3` , thanks.
Response given: 16.4 µM

Challenge: Let us now turn to O=C1NC2(CCCC2)C2CCCCC12O (configuration not stated)
Response given: > 100 µM

Challenge: Next record, please: `O=C1NC(=O)C(C(c2ccc([N+](=O)[O-])cc2)C2C(=O)NC(=O)NC2=O)C(=O)N1`
Response given: > 100 µM

Challenge: Let us now turn to `COC(=O)N/N=C(\C)CC(=O)Nc1cccc([N+](=O)[O-])c1`
Response given: > 100 µM

Challenge: Same question, `Fc1ccc(-c2ncn(CCCN3CCOCC3)c2-c2ccncc2)cc1` this time
Response given: > 25 µM

Challenge: Another compound to look at: CC(C)(C)OC(=O)NCCC1CNc2ccccc21 (configuration not stated)
Response given: > 100 µM

Challenge: Queued: `COc1ccc2c(c1)C(=O)c1c-2c(N2CCN(C(=O)CCNCCNCCN)CC2)nc2ccccc12`
Response given: 44.7 µM

Challenge: Moving on to the next compound: COc1ccc2nc3c(cc2c1)C(=O)CC(c1ccccc1)C3 (configuration not stated)
Response given: 11 µM

Challenge: Next compound up: `Cc1ccc(-c2nc(/C=N/Nc3cc(C)nc4ccc(Br)cc34)c(C)o2)cc1`
Response given: 8.8 µM

Challenge: Consider next the compound CC1SC2=NC3=C(c4ccccc4C3=O)C(c3ccccc3Cl)N2C1=O (configuration not stated) in the same way.
Response given: > 100 µM

Challenge: Now consider `O=C(O)/C=C/c1ccc(OS(=O)(=O)O)cc1` and answer again.
Response given: > 100 µM

Challenge: Quick one: `COc1c(C)c(OC)c(C(=O)CC(C)C)c(OC)c1C`
Response given: > 100 µM

Challenge: Another compound to check: FC(F)(F)c1cc(NC(=S)N2c3ccccc3-n3cccc3C2c2cccnc2)cc(C(F)(F)F)c1 (configuration not stated)
Response given: 21.1 µM

Challenge: Here is the next compound: `CCCCc1n(Cc2ccc3ccccc3n2)cc[n+]1Cc1ccc2ccccc2n1`
Response given: 9.88 µM

Challenge: Also need `COn1oc(=O)c2ccccc21` , thanks.
Response given: > 100 µM

Challenge: Also, `CN(/N=C/c1ccc(Cl)c(Cl)c1)C1=NCCCCN1` please.
Response given: > 100 µM

Challenge: Continue with CCN1C(=O)N(CC)C2C1NN=c1s/c(=C\c3ccc(C(F)(F)F)cc3)c(=O)n12 (configuration not stated)
Response given: 31.2 µM

Challenge: Same thing, different compound: `CC[C@]12C=CCN3CC[C@@]4(c5ccc(OC)cc5N(C)[C@H]4[C@@](O)(C(=O)OC)[C@@H]1OC(=O)CCC(=O)O[C@H]1CC[C@H]4[C@@H]5CC[C@H]6CC(=O)CC[C@]6(C)[C@H]5CC[C@]14C)[C@@H]32`
Response given: > 100 µM

Challenge: Then `C/C(CC(C)(C)N1CC1)=N\NC(=O)Nc1cccc2ccccc12` ?
Response given: 35.5 µM

Challenge: Now the compound CC(=O)OC12CC[N+]3(C)CCCCC3C1=Nc1ccccc12 (configuration not stated)
Response given: > 100 µM

Challenge: What would you report for CC(=O)OCC1=CC2OC(=O)C3=COC(OC4OC(CO)C(O)C(O)C4O)C1C32 (configuration not stated) ?
Response given: > 100 µM

Challenge: Let us now turn to `COC(=O)C1=C(C(=O)ON)[C@@H]2C=C[C@@]1([C@@H](Cc1ccccc1)Nc1ccccc1)O2`
Response given: 28.8 µM

Challenge: Also, `S=C1SCN(Cc2ccccc2)CN1Cc1ccccc1` please.
Response given: > 90 µM

Challenge: Same lookup for `CN(/N=C/c1ccccc1O)c1ccc2ccccc2n1` , please.
Response given: 30.4 µM

Challenge: What do you have for C/C=C\C(CC(=O)NCCC1CN(C(=O)OCc2ccccc2)c2ccccc21)CC(=O)OC (configuration not stated) ?
Response given: > 100 µM

Challenge: Same for `O=c1c(C(c2ccc([N+](=O)[O-])cc2)c2c(O)c3ccccc3n(-c3ccccc3)c2=O)c(O)c2ccccc2n1-c1ccccc1`
Response given: 33.3 µM

Challenge: Now consider `O=C1/C(=C/c2ccc(F)cc2)CN(C(=O)C(Cl)Cl)C/C1=C\c1ccc(F)cc1` .
Response given: 0.67 µM

Challenge: And for `c1cc(C2=NCCO2)c2ccsc2c1` ?
Response given: > 100 µM

Challenge: Query CCOC(=O)c1c(-c2ccc(OC)c(O)c2)c(C#N)c(=S)n(C2OC(COC(C)=O)C(OC(C)=O)C(OC(C)=O)C2OC(C)=O)c1-c1ccccc1 (configuration not stated) next
Response given: > 100 µM

Challenge: // same read-out, input: `Cc1nc(C)c(N2CCN(S(N)(=O)=O)CC2)c(=O)[nH]1`
Response given: > 100 µM

* * *

- System: LOX IMVI melanoma
- experiment_description: NCI tumour cell line growth inhibition, 48 h
attribute_measured: log10 TGI (log10 of the value in µM)
Scale: decimal log of TGI, TGI in µM.

Challenge: Dear colleague, I am looking for the recorded log10 TGI of the following compound: O=C(c1ccccc1)C1OC1C(=O)c1ccccc1 (stereo not given)
Response given: 1.07

Challenge: Can you handle `Cc1nc(-n2nc(-c3ccccc3)cc2-c2ccccc2)sc1C(=O)/C=C/c1ccc([N+](=O)[O-])cc1` next?
Response given: 1.72

Challenge: Note, next up: Cc1ccc2[nH]c(C(=O)NN3C(=O)C(C)SC34CCC(C)CC4)c(-c3ccccc3)c2c1 (stereo not given)
Response given: 1.54

Challenge: Same read-out for `COc1cc2c(cc1O)c(=O)n(CCN(C)C)c1c3cc4c(cc3ncc21)OCO4` ?
Response given: -1.61

Challenge: Consider next the compound `Cc1nc2ccccc2c(/C=C/c2ccccc2)c1C(=O)/C=C/c1ccc(C(F)(F)F)cc1` in the same way.
Response given: 0.37

Challenge: And CN1c2c(nc(N)[nH]c2=O)NCC1CCNc1ccc(C(=O)NC(CCC(=O)O)C(=O)O)cc1 (stereo not given) ?
Response given: 2.89

Challenge: Another: `O=C(Nc1n[nH]c2nc(-c3ccc(O)cc3)c(Br)cc12)C1CC1`
Response given: 1.12

Challenge: Input `CCOC(=O)c1c2c(n3ccc(NC(=O)CCN4CCCCC4)cc13)C(=O)c1ncccc1C2=O`
Response given: -0.11

Challenge: And the next one, `O=C1/C(=C/c2ccc(F)cc2)CN(C(=O)C(Cl)Cl)C/C1=C\c1ccc(F)cc1` ?
Response given: -1.01

Challenge: Can you handle CC1OC(CC(=O)O)Cc2c1c(O)c1c(O)cc(-c3cc(=O)c4c(=O)c5c(c(=O)c=4c3=O)CC(CC(=O)O)OC5C)c(O)c1c2O (stereo not given) next?
Response given: 1.56

Challenge: Again, but for O=C(CC1(O)C(=O)Nc2ccc([N+](=O)[O-])cc21)c1ccncc1 (stereo not given)
Response given: 1.47

Challenge: Next compound up: `C#Cc1cccc(NC(=O)c2cccc(NC(=O)CCl)c2)c1`
Response given: 1.34

Challenge: What do you get for `COC(=O)C1=C(C(=O)ON)[C@@H]2C=C[C@@]1([C@@H](Cc1ccccc1)Nc1ccccc1)O2` ?
Response given: 0.46

Challenge: Follow-up entry: `CCCS(=O)(=O)Nc1cccc(Nc2ncnc3cc(NC(=O)CCl)ccc23)c1Cl`
Response given: 0.59
